Let's look at some compounds and their measured EC50.
Biological target: GAL4-hPPARα (Homo sapiens, UniProt Q07869)
Construct: other: HEK293 cell line with GAL4 UAS-Luciferase
Sequence (Q07869 200-468 limits assumed): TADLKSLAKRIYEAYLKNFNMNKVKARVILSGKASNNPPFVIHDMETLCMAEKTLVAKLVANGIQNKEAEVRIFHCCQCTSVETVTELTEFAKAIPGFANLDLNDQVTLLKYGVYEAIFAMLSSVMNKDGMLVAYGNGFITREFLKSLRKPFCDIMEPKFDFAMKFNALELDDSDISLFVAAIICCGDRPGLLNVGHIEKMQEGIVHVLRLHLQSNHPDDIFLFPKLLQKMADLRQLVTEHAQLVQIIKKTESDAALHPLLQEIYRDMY
Experiment: Transactivation assay, GAL4-hPPARα chimera with luciferase reporter
Type: cell-based
Conditions: HEK293 cell line with GAL4 UAS-Luciferase reporter; read-out: EC50 (μM) in Transactivation Assay (GAL4-hPPARα), Present Disclosure
PROPERTY_MEASURED: EC50 (µM)

• Cc1ccc(C)c(OCCCC(C)(C)C(=O)O)c1 = 60
• CC(C)(Oc1ccc(C(=O)c2ccc(Cl)cc2)cc1)C(=O)O = 80

###

System: PDK-4 mRNA in HK-2 cells (endogenous PPARα)
Experiment: PDK-4 mRNA induction in HK-2 cells (real-time RT-PCR)
Assay type: cell-based, human
Conditions: 24 hours, RT-PCR; read-out: EC50 for activation of PDK-4 in HK-2 cells
Experimental: Values were normalized to 18S rRNA levels. EC50 values were determined for PDK-4 mRNA induction by quantitative PCR under conditions used to generate the data shown in FIG. 2. EC50 values in the transactivation assays were determined by transfection of an expression plasmid encoding a GAL4-hPPARα chimera into cells co-expressing a luciferase reporter gene under the transcriptional control of GAL4 upstream activating elements. […]
PROPERTY_MEASURED: EC50

- CCCCCCCN(CCc1ccc(SC(C)(C)C(=O)O)cc1)C(=O)Nc1ccc(F)cc1F [GW9578, ureido-thioisobutyric acid]: ~0.01 µM
